src = PubChem BioAssay AID1022

Target: Induced myeloid leukemia cell differentiation protein Mcl-1 (Homo sapiens) (UniProt Q07820)
Sequence (Q07820 whole entry, looked up): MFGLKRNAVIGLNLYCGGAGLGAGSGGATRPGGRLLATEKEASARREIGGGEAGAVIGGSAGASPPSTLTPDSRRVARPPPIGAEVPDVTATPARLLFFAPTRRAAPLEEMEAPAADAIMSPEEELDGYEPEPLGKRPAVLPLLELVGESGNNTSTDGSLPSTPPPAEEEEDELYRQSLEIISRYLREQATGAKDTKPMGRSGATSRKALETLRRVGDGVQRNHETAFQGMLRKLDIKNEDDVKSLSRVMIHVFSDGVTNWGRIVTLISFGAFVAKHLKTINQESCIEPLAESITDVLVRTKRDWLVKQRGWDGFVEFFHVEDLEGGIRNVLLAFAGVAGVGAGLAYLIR
Experiment: disruptors of Mcl-1 and Noxa BH3 peptide – biochemical, TR-FRET, 1536-well, primary screen (AID 1022);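 also: His-tagged Mcl-1 with rhodamine Noxa BH3 peptide and terbium anti-His antibody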
Conditions: TR-FRET Mcl-1/Noxa peptide binding, 2 h; at 21.7 µM
The campaign covered roughly 220,000 compounds. About 3,300 (1.5%) were called active.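 The calls were made as follows: active = compounds that cut the protein-peptide binding signal by more than 50% relative to plate controls in a single-dose test; inactive = the rest.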 The sample as a whole holds a higher share of actives than the screen did.
Give your call using only these classes: YES (active), NO (inactive)

Hi, do you know how Cc1nc(CNS(=O)(=O)c2cc([N+](=O)[O-])ccc2C)cs1 came out in this test? NO

What about Cc1ccc(Cn2c(NC(=O)c3ccco3)nc3ccccc32)cc1 ? NO

What about Cc1cccc(COc2ccccc2/C=N/Nc2ccc([N+](=O)[O-])cc2)c1 ? NO

What about COC(=O)c1ccc(S(=O)(=O)NCc2ccccc2)n1C ? NO

What about Cc1cc(C)n(C(=O)c2ccc(S(=O)(=O)N3CCCC3)cc2)n1 ? NO

What about Cc1ccc(NS(=O)(=O)c2ccc(C)c(NC(=O)COc3ccc4ccccc4c3)c2)c(C)c1 ? NO

What about CC(C)OP(=O)(OC(C)C)C(Nc1ccccc1)c1cccc([N+](=O)[O-])c1 (stereo not given) ? NO

What about Cc1cccc2c1-c1sc(C(=O)NCCCN3CCc4ccccc4C3)cc1CO2 ? NO

What about O=c1[nH]c(=S)[nH]c2[nH]c(=S)[nH]c12 ? YES

What about Nc1nc(SC23CC4CC(CC(C4)C2)C3)ns1 ? NO

What about CC1=CC(C)(C)NC(=S)N1NC(=O)c1ccccc1Cl ? NO

What about N/C(=N\S(=O)(=O)c1ccc(Cl)cc1)N1CCOCC1 ? NO

What about N#Cc1ccccc1CN1C(=O)S/C(=C/c2cccn2-c2cccc(C(=O)O)c2)C1=O ? YES

What about Cc1ccc(NS(=O)(=O)c2ccc(N/N=C/c3ccccc3OCC(=O)O)c([N+](=O)[O-])c2)c(C)c1 ? YES

What about Cn1cccc1/C=C1\SC(=O)N(CC(=O)Nc2ccc(F)cc2)C1=O ? NO

What about Cc1ccc(Cn2c(C)nc3c(c2=O)c2nc4ccccc4nc2n3Cc2ccco2)cc1 ? YES

What about COc1ccc(C(=O)OCC(=O)c2ccc(C)c(S(=O)(=O)N3CCOCC3)c2)cc1OC ? NO

What about Cc1ccc(CSc2nnc(-c3cnccn3)n2C)cc1 ? NO

What about Nn1c(SCc2ccccc2)nnc1C1CCCCC1 ? NO

What about Cc1ccc(S(=O)(=O)N(C)C)cc1NC(=O)c1n[nH]c(=O)c2ccccc12 ? NO
